Experiment: Clearance in Sprague-Dawley rat at 1 mg/kg, iv measured upto 8 hrs by LC/MS/MS analysis
Format: ADME, organism-based
Conditions: in vivo
attributeMeasured: clearance (mL/min/kg)
One number for each entry, in mL/min/kg.

Any idea what clearance was measured for COc1ccc2c(c1)CC(C(=O)Nc1cc(F)c(-c3cn[nH]c3)c(F)c1)CO2 (stereo unspecified) ?
28

* * *

Test: Volume of distribution in Sprague-Dawley rat at 1 mg/kg, iv measured upto 8 hrs by LC/MS/MS analysis
Assay type: ADME, organism-based
Conditions: in vivo
attributeMeasured: Vd (L/kg)
Answers are plain numbers, in L/kg.

O=C(Nc1cc(F)c(-c2cn[nH]c2)c(F)c1)C1COc2ccccc2C1 (configuration not stated) :: 0.8

Looking for the measured Vd of COc1ccc2c(c1)CC(C(=O)Nc1cc(F)c(-c3cn[nH]c3)c(F)c1)CO2 (configuration not stated) , can you help?
0.7

* * *

Biological target: CYP1A2 (Homo sapiens)
Sequence (P05177 whole entry): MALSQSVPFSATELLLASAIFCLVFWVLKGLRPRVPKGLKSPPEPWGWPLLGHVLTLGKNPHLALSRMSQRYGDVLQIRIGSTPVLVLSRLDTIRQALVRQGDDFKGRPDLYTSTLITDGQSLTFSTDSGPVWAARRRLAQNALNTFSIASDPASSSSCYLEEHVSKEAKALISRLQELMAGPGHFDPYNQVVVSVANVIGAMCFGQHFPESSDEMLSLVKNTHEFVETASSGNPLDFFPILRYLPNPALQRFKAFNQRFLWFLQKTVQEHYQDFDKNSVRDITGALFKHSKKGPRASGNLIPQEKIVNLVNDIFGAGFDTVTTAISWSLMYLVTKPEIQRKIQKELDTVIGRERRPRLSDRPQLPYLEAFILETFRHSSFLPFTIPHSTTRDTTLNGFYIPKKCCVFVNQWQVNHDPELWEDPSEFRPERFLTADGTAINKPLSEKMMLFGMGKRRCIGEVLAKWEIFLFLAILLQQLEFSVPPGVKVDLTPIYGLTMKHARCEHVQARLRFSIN
Experiment: Inhibition of human CYP1A2 using phenacetin as substrate at 10 uM by cocktail inhibition assay
Format: ADME
Conditions: probe phenacetin
attributeMeasured: inhibition at 10 µM (%)
Numbers only, in %.

Requested field: inhibition at 10 µM. Item: COc1ccc2c(c1)CC(C(=O)Nc1cc(F)c(-c3cn[nH]c3)c(F)c1)CO2 (stereo unspecified)
42

* * *

Target: CYP2D6 (Homo sapiens, UniProt P10635)
Sequence (P10635 whole entry): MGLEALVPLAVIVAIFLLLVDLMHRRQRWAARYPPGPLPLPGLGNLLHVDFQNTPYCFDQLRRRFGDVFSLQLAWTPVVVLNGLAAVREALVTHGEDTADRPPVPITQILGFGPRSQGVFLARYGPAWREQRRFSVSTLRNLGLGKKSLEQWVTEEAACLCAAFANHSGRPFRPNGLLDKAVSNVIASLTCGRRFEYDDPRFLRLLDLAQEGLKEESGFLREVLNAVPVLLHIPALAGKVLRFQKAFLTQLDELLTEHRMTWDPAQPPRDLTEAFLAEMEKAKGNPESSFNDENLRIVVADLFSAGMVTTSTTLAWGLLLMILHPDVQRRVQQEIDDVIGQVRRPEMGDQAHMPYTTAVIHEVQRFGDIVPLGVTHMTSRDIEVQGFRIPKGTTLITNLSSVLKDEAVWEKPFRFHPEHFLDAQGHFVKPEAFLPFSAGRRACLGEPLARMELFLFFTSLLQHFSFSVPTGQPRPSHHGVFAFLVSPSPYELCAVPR
Test: Inhibition of human CYP2D6 using bufuralol as substrate at 10 uM by cocktail inhibition assay
Assay type: ADME
Conditions: probe bufuralol
attributeMeasured: inhibition at 10 µM (%)
Numbers only, in %.

Look at this compound and give its reported inhibition at 10 µM. COc1ccc2c(c1)CC(C(=O)Nc1cc(F)c(-c3cn[nH]c3)c(F)c1)CO2 (stereo unspecified)
40

* * *

Experiment: AUC in Sprague-Dawley rat at 1 mg/kg, iv measured upto 8 hrs by LC/MS/MS analysis
Type: ADME, organism-based
Set-up: route intravenous, dose 1 mg/kg, time <=8
Details: in vivo
attributeMeasured: AUC at 8 h (µM·h)
Numbers only, in µM·h.

COc1ccc2c(c1)CC(C(=O)Nc1cc(F)c(-c3cn[nH]c3)c(F)c1)CO2 (configuration not stated) :: 1.6

Turning to the following compound.
Endpoint output: AUC at 8 h of O=C(Nc1cc(F)c(-c2cn[nH]c2)c(F)c1)C1COc2ccccc2C1 (configuration not stated) . Value?
1.5

* * *

Experiment: Metabolic stability in human liver microsomes assessed as half life
Assay type: ADME, Microsome
attributeMeasured: half-life (min)
Answers are plain numbers, in min.

Query (compound): COc1ccc2c(c1)CC(C(=O)Nc1cc(F)c(-c3cn[nH]c3)c(F)c1)CO2 (stereo unspecified) ; field requested: half-life
23

* * *

Assay: Half life in Sprague-Dawley rat at 1 mg/kg, iv measured upto 8 hrs by LC/MS/MS analysis
Assay type: ADME, organism-based
Details: in vivo
attributeMeasured: half-life (min)
One number for each entry, in min.

May I ask what half-life has been recorded for COc1ccc2c(c1)CC(C(=O)Nc1cc(F)c(-c3cn[nH]c3)c(F)c1)CO2 (stereo unspecified) ?
28.2
